Test: Cytotoxicity against DENV-2 New Guinea C infected human Huh-7 cells assessed as reduction in cell viability preincubated for 1 hr followed by viral infection and measured after 48 hrs by Alamar blue assay
Format: cell-based
Measurement Parameters: Huh-7 cells infected with DENV-2 New Guinea C, time 49 hrs
# CC50 at 48 h annotations
Write down the numeric answer in µM and omit the unit.

Field: example entries. Status: answers known.
[[record]]
compound_structure_string = "CCC(=O)Nc1cccc(-c2snc3cc(-c4ccc(N)c(OC)c4)cnc23)c1"
reported_metric = "CC50 at 48 h"
value_measured = 9.9

[[record]]
compound_structure_string = "COc1cc(-c2cnc3c(-c4cccc(NC(=O)C5CC5)c4)snc3c2)ccc1N"
reported_metric = "CC50 at 48 h"
value_measured = 15

[[record]]
compound_structure_string = "COc1cc(-c2cnc3c(-c4cccc(NC(=O)C5CCCC5)c4)snc3c2)ccc1N"
reported_metric = "CC50 at 48 h"
value_measured = 13


Switching to the query record.
Problem: Entry COc1cc(-c2cnc3c(-c4cccc(NC(=O)C(C)C)c4)snc3c2)ccc1N : reported CC50 at 48 h = ?
Result: 14

* * *

This section presents compounds with their documented CC50 at 48 h values.
Test: Cytotoxicity against DENV-2 New Guinea C infected human Huh-7 cells assessed as reduction in cell viability preincubated for 1 hr followed by viral infection and measured after 48 hrs by Alamar blue assay
Assay type: cell-based
Measurement Parameters: Huh-7 cells infected with DENV-2 New Guinea C, time 49 hrs

[[record]]
compound = "COc1cc(-c2cnc3c(N4CCCC(CNC(=O)c5ccccc5)C4)snc3c2)ccc1N (stereo not drawn)"
value_measured = "> 20 µM"

[[record]]
compound = "C#Cc1cccc(Nc2ncnc3cc(OCCOC)c(OCCOC)cc23)c1 [ERLOTINIB]"
value_measured = "> 20 µM"


Turning now to a further compound:
Problem: Recorded CC50 at 48 h of COc1cc(-c2cnc3c(-c4cccc(NC(=O)N5CCOCC5)c4)snc3c2)ccc1N , please.
Result: > 20 µM

* * *

System: dengue virus type 2
Test: Antiviral activity against DENV-2 New Guinea C infected in human Huh-7 cells preincubated for 1 hr followed by viral infection and measured after 48 hrs by Renilla luciferase reporter gene assay
Reported Metric: EC50 (µM)
Please respond with the number in µM and leave the unit unwritten.

[[record]]
molecule = "COc1cc(-c2cnc3c(-c4cccc(NC(=O)C5CC5)c4)snc3c2)ccc1N"
target = "dengue virus type 2"
reported_metric = "EC50"
value_measured = 3.6

[[record]]
molecule = "COc1cc(-c2cnc3c(-c4cccc(NC(=O)N5CCOCC5)c4)snc3c2)ccc1N"
target = "dengue virus type 2"
reported_metric = "EC50"
value_measured = 7.9


Problem: Look at this molecule and give its reported EC50. CCC(=O)Nc1cccc(-c2snc3cc(-c4ccc(N)c(OC)c4)cnc23)c1
Result: 1.9

Problem: Please report the recorded EC50 for COc1cc(-c2cnc3c(N4CCCC(CNC(=O)N5CCCC5)C4)snc3c2)ccc1N (centres undefined) .
Result: 4.1

* * *

// IC50 collected for Cyclin-G-associated kinase (Homo sapiens, UniProt O14976)
Provide the reading as a plain figure in nM.

[[record]]
compound_structure_string = "COc1cc(-c2cnc3c(N4CCC[C@H](CNC(=O)C5CC5)C4)snc3c2)ccc1N"
reported_metric = "IC50"
measurement_unit = "nM"
value_measured = 13


Now, please, on to the next molecule.
Problem: Field: IC50 (Cyclin-G-associated kinase (Homo sapiens, UniProt O14976)). Entry: COc1cc(-c2cnc3c(N4CCOCC4)snc3c2)ccc1N
Result: 51
